# PROTOCOL_SUMMARY: endothelial E-selectin expression blockers – imaging, HUVEC, immunofluorescence, MLSMR starter and 10KST1 sets, primary screen (AID 487);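 note: 100% = median nuclei count of all wells on the same plate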
# APPLIED_CONDITIONS: HUVEC TNFalpha-induced E-selectin immunofluorescence imaging, at 2 µM; measured here: cell number, toxicity
Recorded nuclei count by entry
Write it as a number; the unit % goes unstated.

Here are 10 compounds together with their reported answers.
[[record]]
compound = "CCOC(=O)c1ccccc1NC(=O)c1c(O)c2ccccc2n(CC)c1=O"
unit_label = "%"
reading = 120

[[record]]
compound = "Cn1c(=O)c2c(nc(SCC(=O)N3CCCc4ccccc43)n2C)n(C)c1=O"
unit_label = "%"
reading = 115

[[record]]
compound = "CCn1c(-c2cc(Br)ccc2O)n[nH]c1=S"
unit_label = "%"
reading = 83.3

[[record]]
compound = "CCOC(=O)c1ccc(NS(=O)(=O)c2ccc(SC)cc2)cc1"
unit_label = "%"
reading = 88.3

[[record]]
compound = "O=C(CCSc1ccccc1)N1CCOCC1"
unit_label = "%"
reading = 105

[[record]]
compound = "O=C(CCNC(=O)Cn1ccc2ccccc2c1=O)NCCN1CCc2ccccc2C1"
unit_label = "%"
reading = 111

[[record]]
compound = "O=C(Nc1ccccc1)c1cccc(N2CCCC2=O)c1"
unit_label = "%"
reading = 88

[[record]]
compound = "O=C(NCc1ccccn1)Nc1ccc2c(c1)OCO2"
unit_label = "%"
reading = 92.3

[[record]]
compound = "O=C(C1CC2CCC1C2)N1CCN(Cc2ccc3c(c2)OCO3)CC1 (configuration not stated)"
unit_label = "%"
reading = 116

[[record]]
compound = "Cn1c(=O)cc(SCC(=O)NCc2cccnc2)c2ccccc21"
unit_label = "%"
reading = 110


Sample COc1cc(C(=O)N2CCN(C(=O)CC(C)C)CC2)cc(OC)c1OC — what was its nuclei count?
117

Sample CCC1CCCCN1S(=O)(=O)c1ccc(C(=O)Nc2nnc(-c3ccccc3Cl)o2)cc1 (configuration not stated) — what was its nuclei count?
108

----------
# PROTOCOL_SUMMARY: inhibitors of TNFa-induced NFkB p65 translocation, primary screen, imaging, HUVEC, MLSMR starter and 10KST1 sets (AID 438);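 note: compound added about 3h40 before a 20 min TNFalpha stimulation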
# APPLIED_CONDITIONS: HUVEC TNFa-induced p65 nuclear translocation; measured here: nuclei count (cytotoxicity indicator), at 2.08 µM
Everything with cell count lower than 400 is NO; everything else, including exactly 400, is YES.

Could you please find out whether Cc1ccc(S(=O)(=O)N2CCCC2C(=O)n2nc(C)cc2C)cc1 (stereo unspecified) has cell count that meets 400 or exceeds it?
YES

Could you please find out whether COc1ccccc1N1CCN(Cc2nnnn2CCc2ccccc2)CC1 has cell count that meets 400 or exceeds it?
YES

----------
# PROTOCOL_SUMMARY: reduction of polyQ htt aggregates in cells – imaging, exon1htt(103Q)mCFP cells, high-content imaging, primary screen (AID 483);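 note: compound exposure lasted 3 days before fixation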
# APPLIED_CONDITIONS: exon1htt(103Q)mCFP cell line, aggregate imaging, at 2 µM; stronger effect = higher value
Recorded inhibition of aggregation by entry
Write it as a number; the unit % goes unstated.

[[record]]
molecule = "COc1ccc(OC)c(-n2nnnc2SCC(=O)NCc2ccc3c(c2)OCO3)c1"
reading = -18.9

[[record]]
molecule = "O=C(O)CCCCCNc1nc(=S)[nH]c2ccccc12"
reading = 20

[[record]]
molecule = "COc1cccc(C2CC(c3ccccc3)n3ncnc3N2)c1 (configuration not stated)"
reading = -12

[[record]]
molecule = "COc1ccc(OC)c(C(=O)c2nc3c(n2O)CCCCC3)c1"
reading = -40.7

[[record]]
molecule = "Cc1sc2nc(SCC(=O)NCCO)n(C)c(=O)c2c1C"
reading = 12.1


Sample CCOC(=O)Cc1csc(NC(=O)CSc2nnc(C(C)C)n2CC)n1 — what was its inhibition of aggregation?
13.4

Sample Cc1c(C(=O)Nc2nnc(C(F)(F)F)s2)oc2ccccc12 — what was its inhibition of aggregation?
-7.7

Sample CSc1nnc(-c2cnccn2)n1Cc1ccccc1 — what was its inhibition of aggregation?
-2.6

Sample Cc1ccc(Cl)cc1NC(=O)CSc1nnc(C)n1-c1ccccc1 — what was its inhibition of aggregation?
-28.9

Sample O=C(O)COc1cccc(NC(=O)C2CCCO2)c1 (configuration not stated) — what was its inhibition of aggregation?
0.8

Sample COc1ccc(OCC(=O)Nc2ccc(N3CCOCC3)c(Cl)c2)cc1 — what was its inhibition of aggregation?
-18.9

Sample CCOC(=O)c1ccc(NC(=O)N2CCN(Cc3cccc(F)c3)CC2)cc1 — what was its inhibition of aggregation?
-19

----------
# PROTOCOL_SUMMARY: endothelial E-selectin expression blockers – imaging, HUVEC, immunofluorescence, MLSMR starter and 10KST1 sets, primary screen (AID 487);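 note: 100% = median nuclei count of all wells on the same plate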
# APPLIED_CONDITIONS: HUVEC TNFalpha-induced E-selectin immunofluorescence imaging, at 2 µM; measured here: cell number, toxicity
QUANTITY: nuclei count (%)
Write it as a number; the unit % goes unstated.

Here are 5 compounds together with their reported answers.
[[record]]
compound = "O=C(O)c1ccc(S(=O)(=O)Cc2ccccc2)cc1"
quantity = "nuclei count"
unit_label = "%"
reading = 113

[[record]]
compound = "O=C1c2ccccc2C(Nc2ccc3nc(-c4cccnc4)[nH]c3c2)N1Cc1ccco1 (stereo not drawn)"
quantity = "nuclei count"
unit_label = "%"
reading = 93.2

[[record]]
compound = "O=C(c1ccc(Br)cc1)N1CCN(S(=O)(=O)c2ccccc2)CC1"
quantity = "nuclei count"
unit_label = "%"
reading = 106

[[record]]
compound = "Cc1[nH]c2ccccc2c(=O)c1CN(C)Cc1ccccc1"
quantity = "nuclei count"
unit_label = "%"
reading = 117

[[record]]
compound = "O=C(CSc1ccccc1C(=O)NCCCN1CCCC1=O)NCc1ccco1"
quantity = "nuclei count"
unit_label = "%"
reading = 118


Sample CCN1CCN(S(=O)(=O)c2ccc(S(=O)(=O)N(CC)Cc3ccccc3)cc2)CC1 — what was its nuclei count?
108

Sample CCOc1ccccc1N1CC(O)=C(c2nc3ccccc3s2)C1=N — what was its nuclei count?
92

Sample CS(=O)(=O)N(CC(=O)N1CCCCCC1)c1ccc(Br)cc1 — what was its nuclei count?
95.6

----------
# PROTOCOL_SUMMARY: endothelial E-selectin expression blockers – imaging, HUVEC, immunofluorescence, MLSMR starter and 10KST1 sets, primary screen (AID 487);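 note: 100% = median nuclei count of all wells on the same plate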
# APPLIED_CONDITIONS: HUVEC TNFalpha-induced E-selectin immunofluorescence imaging, at 2 µM; measured here: cell number, toxicity
QUANTITY: nuclei count (%)
Write it as a number; the unit % goes unstated.

Sample CC(=O)N1CCN(S(=O)(=O)c2ccc(S(=O)(=O)NC3CC3)cc2)CC1 — what was its nuclei count?
112

Sample CC1Cc2nc(SCC(N)=O)n(Cc3ccccc3)c(=O)c2S1 (stereo unspecified) — what was its nuclei count?
113

Sample O=C(O)CCNc1ccc2c(c1)OCCO2 — what was its nuclei count?
116

Sample Cc1ccc2c(c1)CCCN2C(=O)c1ccc2c(c1)OCO2 — what was its nuclei count?
118

Sample CCOC(=O)c1cccc(NC(=O)CSc2nc3ccccc3c(=O)n2CC)c1 — what was its nuclei count?
104

Sample CC1=C(C(=O)N2CCOCC2)C(c2ccccc2F)C2=C(CCCC2=O)N1 (stereo unspecified) — what was its nuclei count?
121

----------
# TARGET_OF_ASSAY: Alpha-2C adrenergic receptor (Homo sapiens)
# PROTOCOL_SUMMARY: compounds altering alpha2C-coupled GIRK flux – cell-based, HEK293 alpha2C/GIRK1/2, thallium flux, primary screen (AID 624);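 note: slope of fluorescence ratio to pre-addition baseline per second over 15 to 24 s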
# APPLIED_CONDITIONS: thallium flux BTC fluorescence, at 10 µM, actives lie on both sides
Recorded slope by entry
Answer using only a numeral; do not append any unit.

Sample CCCCCC(=O)N(CN1C(=O)CCC1=O)c1ccccc1 — what was its slope?
0.00618

Sample CCC(C)OC(=O)c1[nH]c2c(c1C)C(=O)CC(c1ccc(N(C)C)cc1)C2 (stereo not given) — what was its slope?
0.00616

Sample COc1ccc(C2(C(=O)Nc3cc(C)on3)CCOCC2)cc1 — what was its slope?
0.00489

Sample O=C1CN(C(=O)COC(=O)C23CC4CC(CC(O)(C4)C2)C3)c2ccccc2N1 — what was its slope?
0.00543

Sample O=C(c1ccco1)N1CCN(c2nc(C(F)(F)F)nc3c2nnn3Cc2ccccc2)CC1 — what was its slope?
0.00661

Sample COc1ccc(OC)c(NC(=O)CSc2nnc(-c3ccco3)n2-c2ccccc2)c1 — what was its slope?
0.00516

Sample Cn1c(=O)[nH]c(=O)c2c1nc(N1CCCCC1)n2CCSc1ncccn1 — what was its slope?
0.00492

----------
# PROTOCOL_SUMMARY: endothelial E-selectin expression blockers – imaging, HUVEC, immunofluorescence, MLSMR starter and 10KST1 sets, primary screen (AID 487);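 note: 100% = median nuclei count of all wells on the same plate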
# APPLIED_CONDITIONS: HUVEC TNFalpha-induced E-selectin immunofluorescence imaging, at 2 µM; measured here: cell number, toxicity
QUANTITY: nuclei count (%)
Write it as a number; the unit % goes unstated.

[[record]]
compound = "Cn1c(=O)c2c(nc(SCCCC#N)n2Cc2c(F)cccc2Cl)n(C)c1=O"
quantity = "nuclei count"
reading = 108

[[record]]
compound = "Cc1ccc2ncnc(NCCCN3CCOCC3)c2c1"
quantity = "nuclei count"
reading = 115


Sample CC(C)CCSc1nc2c(c(=O)[nH]c(=O)n2C)n1CCCc1ccccc1 — what was its nuclei count?
120

Sample c1ccc(-c2noc(-c3cccnc3)n2)nc1 — what was its nuclei count?
96.9

Sample CC(C(=O)OCn1nnc2ccccc2c1=O)N1C(=O)c2ccccc2C1=O (stereo unspecified) — what was its nuclei count?
76.4

Sample CC(Oc1ccccc1)C(=O)NC1CCN(Cc2ccccc2)CC1 (stereo unspecified) — what was its nuclei count?
103
